system: HT-29 human colorectal cancer cells; assay: MTT cell viability assay, HT-29; format: cell-based; settings: HT-29, MTT, 48 h, read-out: IC50 cell viability
pIC50: −log10 of the molar value.
PROPERTY_MEASURED: pIC50

- COMPOUND: "O=C(/C=C/c1cccc(S(=O)(=O)c2ccc3ccccc3n2)c1)NO [MPT0G236]"
  TGT: "HT-29 human colorectal cancer cells"
  MEASURED_VALUE: 6.06
